Tested on: MCF7/ADVP3000
method: MTT cytotoxicity/reversal assay (Example 2)
Format: cell-based
assayConditions: Homo sapiens, alone, read-out: IC50 of flavopiridol
metricName: pIC50
The read-out pIC50 is expressed as -log10 of concentration in moles per litre.

Problem: // lookup pIC50 for `CN1CC[C@H](c2c(O)cc(O)c3c(=O)cc(-c4ccccc4Cl)oc23)[C@H](O)C1`
Result: 5.41

* * *

Measured IC50 at 68 h of individual entries
method: MTT cytotoxicity/reversal assay (Example 1)
assayConditions: human
Kindly provide the numeric value in µM only, without the unit symbol.

{"compound": "CC[C@]1(O)C[C@H]2CN(CCc3c([nH]c4ccccc34)[C@@](C(=O)OC)(c3cc4c(cc3OC)N(C=O)[C@H]3[C@@](O)(C(=O)OC)[C@H](OC(C)=O)[C@]5(CC)C=CCN6CC[C@]43[C@@H]65)C2)C1 [Vincristine, vincristine]", "IC50 at 68 h, µM": 170}

Consider the record given below.
Problem: // lookup IC50 at 68 h for CC(=O)O[C@H]1C(=O)[C@@]2(C)[C@H]([C@H](OC(=O)c3ccccc3)[C@]3(O)C[C@H](OC(=O)[C@H](O)[C@@H](NC(=O)c4ccccc4)c4ccccc4)C(C)=C1C3(C)C)[C@]1(OC(C)=O)CO[C@@H]1C[C@@H]2O [Paclitaxel, paclitaxel]
Result: 219
